experiment: Pharmacokinetics after intravenous administration; type: in vivo, CD-1 mice; conditions: male, CD-1, mouse, plasma, iv, 5 mg/kg
quantity_kind: half-life (min)

compound="COc1ccc2c(c1OCCCCS(=O)(=O)O)C(=O)O[C@@H]2[C@H]1c2c(cc3c(c2OC)OCO3)CCN1C [Compound 6b]" reading=37.8

1. COc1ccc2c(c1OCCCS(=O)(=O)O)C(=O)O[C@@H]2[C@H]1c2c(c(Br)c3c(c2OC)OCO3)CCN1C [Compound 8c]
2. COc1ccc2c(c1OC)C(=O)O[C@@H]2[C@H]1c2c(cc3c(c2OC)OCO3)CCN1C [Compound 1, Noscapine, reference compound]
Compare reported half-life values for 1 and 2 . Which is lower? Please indicate the selected item by its label.
2
(2: 23.4 min, 1: 42 min)

* * *

tested on: PC-3 cells; experiment: MTT cell proliferation assay, PC-3; type: cell-based, human; conditions: PC-3 cells, 48 h, MTT
quantity_kind: IC50 (µM)
State just the number; it will be interpreted in µM.

Give the observed IC50 of COc1ccc2c(c1OCCCCS(=O)(=O)O)C(=O)O[C@@H]2[C@H]1c2c(c(Br)c3c(c2OC)OCO3)CCN1C for PC-3 cells.
29

* * *

test system: T24 bladder cancer cells; assay: MTT cell proliferation assay, T24; assay type: cell-based; settings: T24, 48 h, MTT
quantity_kind: IC50 (µM)
A number alone suffices; assume µM.

Could you please provide reported IC50 for COc1ccc2c(c1OCCCCS(=O)(=O)O)C(=O)O[C@@H]2[C@H]1c2c(c(Br)c3c(c2OC)OCO3)CCN1C ? Thanks!
32
